biological target: COP9 signalosome complex subunit 5 (Homo sapiens, UniProt Q92905); assay: Inhibition of N-terminal His6-tagged CSN5 (2 to 257 residues) (unknown origin) transfected in Transetta cells preincubated for 20 mins followed by N-(2-(3-(3',6'-dihydroxy-3-oxo-3H-spiro[isobenzofuran-1,9'-xanthen]-5-yl)thioureido)ethyl)-3-(2-(5-methyl-[1,1'-biphenyl]-2-yl)-1H-pyrrolo[2,3-b]pyridin-3-yl)propanamide probe addition and measured after 1 hr by fluorescence based microplate reader assay; type: cell-based
Sequence (Q92905 whole entry, the tested form may be a part, one chain of several): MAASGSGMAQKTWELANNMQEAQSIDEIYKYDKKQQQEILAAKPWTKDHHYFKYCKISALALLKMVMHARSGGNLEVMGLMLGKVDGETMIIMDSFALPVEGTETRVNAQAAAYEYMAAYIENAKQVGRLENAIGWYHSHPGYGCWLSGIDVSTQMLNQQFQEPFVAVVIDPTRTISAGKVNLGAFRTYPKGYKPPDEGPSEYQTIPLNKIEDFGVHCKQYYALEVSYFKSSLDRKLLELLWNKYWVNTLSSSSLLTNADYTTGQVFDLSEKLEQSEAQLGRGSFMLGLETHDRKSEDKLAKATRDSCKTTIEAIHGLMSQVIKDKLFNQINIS
MEASUREMENT_LABEL: pIC50
As a rule, pIC50 stands for the negative log10 of the concentration, concentration in M.

// solved cases for pIC50 follow
| MOLECULE | pIC50 |
| --- | --- |
| CC(C)c1ccc(Cc2sc(N)nc2C(=O)O)cc1 | 4.10 |
| Nc1nc(C(=O)O)c(CCc2cccc3ccccc23)s1 | 4.55 |
| CC(C)=CCCC1=CC(=O)c2c(O)ccc(O)c2C1=O | 5.32 |
| Nc1nc(C(=O)O)c(CCc2ccc(Br)cc2)s1 | 4.19 |
| CC(C)(C)c1ccc(CCc2sc(N)nc2C(=O)O)cc1 | 4.53 |
| Nc1nc(C(=O)O)c(CCc2ccc(Cl)cc2Cl)s1 | 4.38 |
| Cc1ccc(CCc2sc(N)nc2C(=O)O)o1 | 3.79 |
| CC(=O)O[C@H](CC=C(C)C)C1=CC(=O)c2c(O)ccc(O)c2C1=O | 5.97 |
| CC(Cc1ccc(C(C)(C)C)cc1)c1sc(N)nc1C(=O)O (stereo not drawn) | 4.72 |
| CC(C)=CC[C@@H](OC(=O)C(C)C)C1=CC(=O)c2c(O)ccc(O)c2C1=O | 5.93 |

Sample CC(C)=CC[C@H](O)C1=CC(=O)c2c(O)ccc(O)c2C1=O ; pIC50 observed: 6.10

GET /value?item= CC(C)c1ccc(CC(C)c2sc(N)nc2C(=O)O)cc1 (stereo not drawn) &field=pIC50 returns 4.83

Lab book: pIC50 of CC(C)=CC[C@@H](O)C1=CC(=O)c2c(O)ccc(O)c2C1=O noted as 6.39
